- target-desc: PAI-1 (Homo sapiens)
- run-description: biochemical
- Assay type: biochemical
- study-conditions: 100 μm
Structures can show the parent of a compound that is named as a salt.
Quick reference for % Inhibition among some compounds
Entry rule: numbers only, all in %.

In the examples that follow, each entry is paired with its recorded % Inhibition.
compound="CN(C)CCSc1ccc(/C=c2\\[nH]c(=O)/c(=C/c3ccc4ccccc4c3)[nH]c2=O)s1 [Compound 5286]" obs_value=98
compound=CN(C)CCSc1ccc(/C=c2\[nH]c(=O)/c(=C/c3ccc4c(c3)OCO4)[nH]c2=O)s1 obs_value=68
compound=CN(C)CCSc1ccc(/C=c2\[nH]c(=O)/c(=C/c3ccnc4ccccc34)[nH]c2=O)s1 obs_value=88
compound="CN(C)CCSc1ccc(/C=c2\\[nH]c(=O)/c(=C/c3ccccc3)[nH]c2=O)cc1 [Compound 5128.HCl]" obs_value=69
compound="CC(=O)Nc1ccc(/C=c2\\[nH]c(=O)/c(=C/c3ccc(SCCN(C)C)s3)[nH]c2=O)cc1 [Compound 5300.HCl]" obs_value=26

Please report the measured % Inhibition for CN(C)CCSc1ccc(/C=c2\[nH]c(=O)/c(=C/c3ccc(N(C)C)cc3)[nH]c2=O)s1
99

---

- target-desc: PAI-1 (Homo sapiens, UniProt P05121)
- Sequence (P05121 24-402): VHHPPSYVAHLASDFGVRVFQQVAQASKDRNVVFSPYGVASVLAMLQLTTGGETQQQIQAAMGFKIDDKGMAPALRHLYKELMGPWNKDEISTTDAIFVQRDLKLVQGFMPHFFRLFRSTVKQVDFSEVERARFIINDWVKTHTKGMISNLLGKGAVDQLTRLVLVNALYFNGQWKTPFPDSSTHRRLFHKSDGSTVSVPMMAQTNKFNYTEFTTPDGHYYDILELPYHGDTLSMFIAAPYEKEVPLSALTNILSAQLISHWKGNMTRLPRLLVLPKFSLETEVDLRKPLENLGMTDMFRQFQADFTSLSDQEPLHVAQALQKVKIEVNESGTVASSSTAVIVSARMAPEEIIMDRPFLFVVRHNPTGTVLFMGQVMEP
- run-description: biochemical
- Assay type: biochemical
- study-conditions: 20 μm
Structures can show the parent of a compound that is named as a salt.
Entry flag: Fulfilled if % Inhibition reaches 50%; Not fulfilled if it does not.

Some entries whose results are on file:
compound="CN(C)CCSc1ccc(/C=c2\\[nH]c(=O)/c(=C/c3ccc4ccccc4c3)[nH]c2=O)s1 [Compound 5286.HCl]" class_label=Fulfilled
compound="CN(C)CCSc1ccc(/C=c2\\[nH]c(=O)/c(=C/c3cccc(C(F)(F)F)c3)[nH]c2=O)cc1 [Compound 5423]" class_label="Not fulfilled"
compound="CN(C)CCSc1ccc(/C=c2\\[nH]c(=O)/c(=C/c3ccc(C(C)(C)C)cc3)[nH]c2=O)cc1 [Compound 5440.HCl]" class_label="Not fulfilled"

With those in mind, consider the next compound.
Is % Inhibition for CN(C)CCSc1ccc(/C=c2\[nH]c(=O)/c(=C/c3ccc(Br)cc3)[nH]c2=O)s1 [Compound 5489.HCl] at or above 50%?
Fulfilled

---

- target-desc: PAI-1 (Homo sapiens, UniProt P05121)
- run-description: biochemical
- Format: biochemical
- study-conditions: PAI chromogenic substrate assay
Counter-ions that a name gives are not always drawn.
Strictly below 10 µM in IC50: Met. Otherwise: Not met.

molecule="Cc1cccc(/C=c2\\[nH]c(=O)/c(=C/c3ccc(SCCN(C)C)cc3)[nH]c2=O)c1 [Compound 5439]" class_label="Not met"
molecule="CN(C)CCSc1ccc(/C=c2\\[nH]c(=O)/c(=C/c3c4ccccc4cc4ccccc34)[nH]c2=O)s1 [Compound 5498.HCl]" class_label="Not met"
molecule="CN(C)CCSc1ccc(/C=c2\\[nH]c(=O)/c(=C/c3cccc(Cl)c3)[nH]c2=O)cc1 [Compound 5292]" class_label=Met
molecule="CN(C)CCSc1ccc(/C=c2\\[nH]c(=O)/c(=C/c3ccc(N(C)C)cc3)[nH]c2=O)cc1 [Compound 5424.HCl]" class_label="Not met"
molecule="CN(C)CCSc1ccc(/C=c2\\[nH]c(=O)/c(=C/c3cccc(C(F)(F)F)c3)[nH]c2=O)s1 [Compound 5315]" class_label="Not met"
molecule="CN(C)CCSc1ccc(/C=c2\\[nH]c(=O)/c(=C/c3ccc4ccccc4c3)[nH]c2=O)s1 [Compound 5286.HCl]" class_label="Not met"

In the record for COc1ccc(/C=c2\[nH]c(=O)/c(=C/c3ccc(SCCN(C)C)s3)[nH]c2=O)cc1 [Compound 5464.HCl] , is IC50 less than 10 µM?
Not met

In the record for COc1ccc(/C=c2\[nH]c(=O)/c(=C/c3ccc(SCCN(C)C)cc3)[nH]c2=O)cc1 [Compound 5479] , is IC50 less than 10 µM?
Met

In the record for CN(C)CCSc1ccc(/C=c2\[nH]c(=O)/c(=C/c3ccc4c(c3)OCO4)[nH]c2=O)cc1 [Compound 5491] , is IC50 less than 10 µM?
Not met

In the record for CN(C)CCSc1ccc(/C=c2\[nH]c(=O)/c(=C/c3ccc4ccccc4n3)[nH]c2=O)s1 [Compound 5308] , is IC50 less than 10 µM?
Met

In the record for CN(C)CCSc1ccc(/C=c2\[nH]c(=O)/c(=C/CC(C)(C)C)[nH]c2=O)s1 [Compound 5502] , is IC50 less than 10 µM?
Not met
